- Tested on: 186277-243-T-J2-PDC spheroids with HUVEC/MSC, viability;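 further: compound exposure lasted seven days before readout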
- protocolDetails: Anticancer human tumor 186277-243-T-J2-PDC patient-derived colon adenocarcinoma cell line growth inhibition [CLK]
- assayContext: curve of first compound; second compound 0.316 µM
Record form. Attribute: IC50. Fill in for each entry.

**Q:** // output IC50; input CC(CO)NC(=O)c1cc(-c2ccc(Cl)cc2)nn(-c2cnn(C)c2)c1=O (stereo not given) + CNC(=O)c1ccc(Nc2nc(OC3CCCC3)c3c(-c4ccc5nc(C)oc5c4)c[nH]c3n2)c(OC)c1 ; system 186277-243-T-J2-PDC spheroids with HUVEC/MSC, viability;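 further: compound exposure lasted seven days before readout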
**A:** < 31.6 nM

**Q:** // output IC50; input Cn1ncnc1[C@H]1c2n[nH]c(=O)c3cc(F)cc(c23)N[C@@H]1c1ccc(F)cc1 + CNC(=O)c1ccc(Nc2nc(OC3CCCC3)c3c(-c4ccc5nc(C)oc5c4)c[nH]c3n2)c(OC)c1 ; system 186277-243-T-J2-PDC spheroids with HUVEC/MSC, viability;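 further: compound exposure lasted seven days before readout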
**A:** < 0.316 nM

**Q:** // output IC50; input CC(=O)O[C@H]1C(=O)[C@@]2(C)[C@H]([C@H](OC(=O)c3ccccc3)[C@]3(O)C[C@H](OC(=O)[C@H](O)[C@@H](NC(=O)c4ccccc4)c4ccccc4)C(C)=C1C3(C)C)[C@]1(OC(C)=O)CO[C@@H]1C[C@@H]2O + CNC(=O)c1ccc(Nc2nc(OC3CCCC3)c3c(-c4ccc5nc(C)oc5c4)c[nH]c3n2)c(OC)c1 ; system 186277-243-T-J2-PDC spheroids with HUVEC/MSC, viability;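 further: compound exposure lasted seven days before readout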
**A:** < 31.6 nM

**Q:** // output IC50; input C=CC(=O)N1CCN(c2nc(=O)n(-c3c(C)ccnc3C(C)C)c3nc(-c4c(O)cccc4F)c(F)cc23)C(C)C1 (stereo not given) + CNC(=O)c1ccc(Nc2nc(OC3CCCC3)c3c(-c4ccc5nc(C)oc5c4)c[nH]c3n2)c(OC)c1 ; system 186277-243-T-J2-PDC spheroids with HUVEC/MSC, viability;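 further: compound exposure lasted seven days before readout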
**A:** 2160 nM

**Q:** // output IC50; input CC(C)CC(NC(=O)C(Cc1ccccc1)NC(=O)c1cnccn1)B(O)O (stereo not given) + CN1CCN(c2cc(C(=O)Nc3cc4cc(-c5cnn(C)c5)ccc4cn3)ccn2)CC1 ; system 186277-243-T-J2-PDC spheroids with HUVEC/MSC, viability;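 further: compound exposure lasted seven days before readout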
**A:** < 0.949 nM
